Taken from the array DNA melting data of Ke et al. (doi:10.1101/2024.01.08.574731).

assay: folding enthalpy; higher = less favourable; fluorescence melt of hairpins on a sequencing array, two-state fit; details: sodium 0.088 M
outcome.measure: folding enthalpy (kcal/mol)
Kindly provide the numeric value in kcal/mol only, without the unit symbol.

Here are 3 sequences together with their reported answers.
{"sequence": "GCTTTTGGAAACAAGAGC (((.(((....))).)))", "unit.tag": "kcal/mol", "folding enthalpy": -20}
{"sequence": "GCTGAGCGAAAGCTTCGC ((..(((....)))..))", "unit.tag": "kcal/mol", "folding enthalpy": -13.4}
{"sequence": "GCCAGGCGAAAGCCTCGC ((.((((....)))).))", "unit.tag": "kcal/mol", "folding enthalpy": -17.4}

Summary for this sequence, GTAGCACGAAAGTGTTAC (((.(((....))).))) : folding enthalpy is -29.2

# folding enthalpy of GTCTAAGGAAACTCAGAC ((((.((....)).)))) = -11.5

For GCCAGACGAAAGTCCGGC (((.(((....))).))) the sequence record lists folding enthalpy as -27.6

For reference, reported folding enthalpy for GGGCCACGAAAGTGACCC (((.(((....))).))) stands at -40.5

So for GATCTGGGACCAGATC ((((((....)))))) , the logged folding enthalpy turned out to be -43.4

folding enthalpy reading for GGAATTCGAAAGAATCC (((.(((....)))))) : -20.9

The measured folding enthalpy associated with GTCCCCGAAAGGGGTGAC ((((((....)))..))) reads -8.1

Memo: GATCTTATATAAGATC ((((((....)))))) , reported folding enthalpy: -34.1

sequence GTAGTGCCGAAAGGCTAC (((..(((....)))))) , folding enthalpy observed: -9.39

get_value(item= GATCTTCGTTAAGATC ((((((....)))))) , readout=folding enthalpy) returns -32.2

folding enthalpy recorded for this sequence, GTTATCGAAAGATGAAC ((((((....))).))) , is -13.2

// folding enthalpy lookup, sequence = GCTGAAGGAAACTTTAGC (((.(((....))).))) , result: -29.2

Please fill in: folding enthalpy reported for GCTTTCGAAAGAAACAGC ((((((....)))..))) = -16.3

Memo: GATCAGTGGTCTGATC ((((((....)))))) , reported folding enthalpy: -35.7

For reference, reported folding enthalpy for GCAATCTCGAAAGAGTGC (((..(((....)))))) stands at -24.5

The sequence listed as GATCGATTCTCGATC ((((((...)))))) has a reported folding enthalpy of -38.8

// GCCAGTCCGAAAGGAGGC (((..(((....)))))) : folding enthalpy value = -22.1

get_value(item= GTCTTGCGAAAGCATGAC (((.(((....))).))) , readout=folding enthalpy) returns -37.7

----------
Below: a set of entries, each annotated with reported Tm.
test: melting temperature; fluorescence melt of hairpins on a sequencing array, two-state fit, raised by 9.35 °C to match UV melts; conditions: sodium 0.088 M
Write it as a number; the unit °C goes unstated.

Please review the following examples before continuing.
{"sequence": "GGCGCTGCGAAAGCAGCC (((..(((....))))))", "outcome.measure": "Tm", "assay.value": 58.1}
{"sequence": "GTGTCAGCGAAAGCTCAC (((..(((....))))))", "outcome.measure": "Tm", "assay.value": 39}

As a next step, examine the sequence that follows.
Tm for GATCGTTGTCACGATC ((((((....)))))) is 54.9

----------
Overview of recorded Tm for various sequences
test: melting temperature; fluorescence melt of hairpins on a sequencing array, two-state fit, raised by 9.35 °C to match UV melts; conditions: sodium 0.088 M
Express your answer in °C, writing the number without its unit.

{"sequence": "GTTTCCGGAAACAGAAAC (((((.(....).)))))", "unit.tag": "°C", "assay.value": 35.1}
{"sequence": "GATCCACGCTGGATC ((((((...))))))", "unit.tag": "°C", "assay.value": 51.6}
{"sequence": "GGGGCGGGAAACCGCCTC (.(((((....))))).)", "unit.tag": "°C", "assay.value": 60.5}
{"sequence": "TCGTAGAAATACGA (((((....)))))", "unit.tag": "°C", "assay.value": 41.3}
{"sequence": "GCAGACACGAAAGTGTGC (((..(((....))))))", "unit.tag": "°C", "assay.value": 46.8}
{"sequence": "GATCTATGTGTAGATC ((((((....))))))", "unit.tag": "°C", "assay.value": 48}
{"sequence": "GGCTGCGAAAGCATTGCC ((((((....)))..)))", "unit.tag": "°C", "assay.value": 52.8}
{"sequence": "GATCGCCTGTGCGATC ((((((....))))))", "unit.tag": "°C", "assay.value": 66.8}
{"sequence": "GATCTTAACTAAGATC ((((((....))))))", "unit.tag": "°C", "assay.value": 44}
{"sequence": "GGTCGGCGAAAGCCAACC (((.(((....))).)))", "unit.tag": "°C", "assay.value": 55.3}

Note to self: Tm recorded for GAGGGCGAAAGCCAGCTC ((((((....)))..))) was 46.7

get_value(item= GCCTTGCGAAAGCTAGGC ((((.((....)).)))) , readout=Tm) returns 67.2

Measured Tm of GCGCGGCGAAAGCTACGC (((..((....))..))) : 64.1

Lab book: Tm of GCCTTCGAAAGAAGGGC ((((((....))).))) noted as 63.1

# sequence GACCTGGGAAACCAGATC ((.((((....)))).)) ; its Tm = 36.1

----------
folding enthalpy values for the sequences below.
test: folding enthalpy; higher = less favourable; fluorescence melt of hairpins on a sequencing array, two-state fit; settings: sodium 0.088 M
Give just the number in kcal/mol; leave the unit off.

{"sequence": "GCACTCGGAAACGGGTGC ((((.((....)).))))", "outcome.measure": "folding enthalpy", "unit.tag": "kcal/mol", "assay.value": -51.6}
{"sequence": "GTGGACGAAAGTCGCAC ((((((....))).)))", "outcome.measure": "folding enthalpy", "unit.tag": "kcal/mol", "assay.value": -15.5}
{"sequence": "CAGATGAAAATCTG (((((....)))))", "outcome.measure": "folding enthalpy", "unit.tag": "kcal/mol", "assay.value": -22.9}
{"sequence": "GGTACAGGAAACTGCACC (((.(((....))).)))", "outcome.measure": "folding enthalpy", "unit.tag": "kcal/mol", "assay.value": -32.5}
{"sequence": "GATCCCCTATGGGATC ((((((....))))))", "outcome.measure": "folding enthalpy", "unit.tag": "kcal/mol", "assay.value": -36.9}

Query CGACCGGAAACGGCATCG ((((((....)))..))) yields folding enthalpy of -14.8

folding enthalpy reading for GAGAGCGGAAACGCTTTC ((.((((....)))).)) : -17.3

Recorded folding enthalpy (sequence GATCGACTCTTCGATC ((((((....)))))) ): -39.5

For this sequence ( GATCTGGTGGCAGATC ((((((....)))))) ), measured folding enthalpy is -33.9

Noted for GTCGACCCGAAAGGGGAC (((..(((....)))))) : its folding enthalpy reads -13.4

Input GTGCTCGGAAACGAGCGC (.(((((....))))).) . Output folding enthalpy: -19.4

Record GTCACGGAAACGTGAC ((((((....)))))) , field folding enthalpy: -34.4

----------
assay: melting temperature; fluorescence melt of hairpins on a sequencing array, two-state fit, raised by 9.35 °C to match UV melts; details: sodium 0.088 M
Classify by measured Tm: y if it is equal to or exceeds 40 °C, n if it is smaller.

Consider the following illustrative entries.
{"sequence": "GTGCAGGGAAACCTGCGC (.(((((....))))).)", "classification": "y"}
{"sequence": "GGATAAGAAATTATCC ((((((....))))))", "classification": "y"}
{"sequence": "GTCTTGCGAAAGCATGAC (((.(((....))).)))", "classification": "y"}
{"sequence": "GATCCTCACGAGGATC ((((((....))))))", "classification": "y"}
{"sequence": "GTATCAGGAAACTGACAC ((.((((....)))).))", "classification": "n"}

API: the following record is the query input.
Asked: Form field: Tm at least 40 °C? Entry: CCAGAGAAATCTGG (((((....)))))
Given back: y
